# Tested on: LC-2-ad
# Assay protocol: relative viability (nuclei count vs DMSO), 5 days (fraction); higher = more cells survive
# Condition info: first compound 0.08 µM
Listed here: items and their measured relative viability.
Result type: relative viability

Compound	Target	Result type	Observed result
C=C1C(=O)O[C@@H](CCCCCCCC)[C@@H]1C(=O)O [C-75] + CCNC(=O)c1noc(-c2cc(C(C)C)c(O)cc2O)c1-c1ccc(CN2CCOCC2)cc1 [Luminespib] (partner 0.01 µM)	LC-2-ad	relative viability	1.06
Oc1nc(-c2ccc(C(F)(F)F)cc2)nc2c1CSCC2 [XAV939] + Cc1nc(NC(=O)N2CCC[C@H]2C(N)=O)sc1-c1ccnc(C(C)(C)C(F)(F)F)c1 [Alpelisib] (partner 2 µM)	LC-2-ad	relative viability	0.901
C=C1C(=O)O[C@@H](CCCCCCCC)[C@@H]1C(=O)O [C-75] + O=C(c1cc(Cc2n[nH]c(=O)c3ccccc23)ccc1F)N1CCN(C(=O)C2CC2)CC1 [Olaparib] (partner 8 µM)	LC-2-ad	relative viability	0.683
Oc1nc(-c2ccc(C(F)(F)F)cc2)nc2c1CSCC2 [XAV939] + Cc1nc(Nc2ncc(C(=O)Nc3c(C)cccc3Cl)s2)cc(N2CCN(CCO)CC2)n1 [Dasatinib] (partner 0.075 µM)	LC-2-ad	relative viability	0.729
C=C1C(=O)O[C@@H](CCCCCCCC)[C@@H]1C(=O)O [C-75] + C[C@@H](Oc1cc(-c2cnn(C3CCNCC3)c2)cnc1N)c1c(Cl)ccc(F)c1Cl [Crizotinib] (partner 1 µM)	LC-2-ad	relative viability	0.467
Oc1nc(-c2ccc(C(F)(F)F)cc2)nc2c1CSCC2 [XAV939] + NC(=O)Nc1cc(-c2cccc(F)c2)sc1C(=O)N[C@H]1CCCNC1 [AZD7762] (partner 0.2 µM)	LC-2-ad	relative viability	0.865
Oc1nc(-c2ccc(C(F)(F)F)cc2)nc2c1CSCC2 [XAV939] + O=C(c1cc(Cc2n[nH]c(=O)c3ccccc23)ccc1F)N1CCN(C(=O)C2CC2)CC1 [Olaparib] (partner 8 µM)	LC-2-ad	relative viability	0.659
C=C1C(=O)O[C@@H](CCCCCCCC)[C@@H]1C(=O)O [C-75] + CC(=O)c1c(C)c2cnc(Nc3ccc(N4CCNCC4)cn3)nc2n(C2CCCC2)c1=O [Palbociclib] (partner 0.5 µM)	LC-2-ad	relative viability	0.555
Oc1nc(-c2ccc(C(F)(F)F)cc2)nc2c1CSCC2 [XAV939] + C[C@]1(O)C[C@@H](c2nc(-c3ccc4ccc(-c5ccccc5)nc4c3)c3c(N)nccn32)C1 [Linsitinib] (partner 1 µM)	LC-2-ad	relative viability	0.873
Oc1nc(-c2ccc(C(F)(F)F)cc2)nc2c1CSCC2 [XAV939] + CC1(C)CCC(c2ccc(Cl)cc2)=C(CN2CCN(c3ccc(C(=O)NS(=O)(=O)c4ccc(N[C@H](CCN5CCOCC5)CSc5ccccc5)c(S(=O)(=O)C(F)(F)F)c4)cc3)CC2)C1 [Navitoclax] (partner 0.5 µM)	LC-2-ad	relative viability	0.389
C=C1C(=O)O[C@@H](CCCCCCCC)[C@@H]1C(=O)O [C-75] + CC(=O)Nc1cccc(-n2c(=O)n(C3CC3)c(=O)c3c(Nc4ccc(I)cc4F)n(C)c(=O)c(C)c32)c1 [Trametinib] (partner 0.02 µM)	LC-2-ad	relative viability	0.883
C=C1C(=O)O[C@@H](CCCCCCCC)[C@@H]1C(=O)O [C-75] + CC1(C)CCC(c2ccc(Cl)cc2)=C(CN2CCN(c3ccc(C(=O)NS(=O)(=O)c4ccc(N[C@H](CCN5CCOCC5)CSc5ccccc5)c(S(=O)(=O)C(F)(F)F)c4)cc3)CC2)C1 [Navitoclax] (partner 0.5 µM)	LC-2-ad	relative viability	0.53
